Assayed target: Casein kinase I isoform delta (Homo sapiens) (UniProt P48730)
Sequence (P48730 whole entry, looked up, canonical isoform): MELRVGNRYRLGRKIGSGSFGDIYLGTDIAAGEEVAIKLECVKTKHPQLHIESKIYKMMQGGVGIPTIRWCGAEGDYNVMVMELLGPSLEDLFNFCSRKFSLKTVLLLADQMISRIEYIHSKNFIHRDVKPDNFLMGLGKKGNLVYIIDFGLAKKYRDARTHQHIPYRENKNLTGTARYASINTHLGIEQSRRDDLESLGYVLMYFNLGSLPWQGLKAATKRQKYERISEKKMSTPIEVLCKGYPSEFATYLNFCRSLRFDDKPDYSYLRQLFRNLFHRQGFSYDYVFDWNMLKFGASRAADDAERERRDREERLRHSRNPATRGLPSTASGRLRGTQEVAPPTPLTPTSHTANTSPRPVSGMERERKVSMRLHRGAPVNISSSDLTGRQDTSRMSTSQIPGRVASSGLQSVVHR
Measurement context: Compound concentration 20.0 uM
Description: Thermal Shift Assay. Domain: start/stop: M1-K294
Measure: ΔTm (°C)
// return numeric value only (unit: °C, not printed)

CC/C(=C(/c1ccc(/C=C/C(=O)O)cc1)c1ccc2[nH]ncc2c1)c1ccc(F)cc1Cl	-4.37

Q: // query ΔTm value for entry `COc1ccc(/C=C/C(=O)NO)c(-c2ccc(-c3ccccc3)cc2)c1`
A: -0.46

Q: // query ΔTm value for entry `C[C@]1(c2nc3c(C(N)=O)cccc3[nH]2)CCCN1`
A: 0.16

Q: // query ΔTm value for entry `Cc1cc(C(=O)CN2CCCCC2)c(C)n1-c1ccc(Cl)cc1`
A: -0.16

Q: // query ΔTm value for entry `CCNC(=O)c1noc(-c2cc(C(C)C)c(O)cc2O)c1-c1ccc(CN2CCOCC2)cc1`
A: 0.41
